Let's look at some sequences and their measured switch fluorescence ratio.
# Test system: ATP;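 further: ATP exposure 15 min at 22 °C before imaging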
# method-notes: switch fluorescence ratio, 500 uM ATP over buffer (Cy3 cluster intensity, sum of 5 cycles each) (fold (ratio)); higher = stronger signal-on switching upon ATP binding; sequences stand for … in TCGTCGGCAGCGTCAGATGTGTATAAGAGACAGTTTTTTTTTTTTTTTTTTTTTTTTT…TC
# applied-conditions: aptamer strand: ATP DNA aptamer (quencher-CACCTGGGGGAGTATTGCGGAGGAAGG + anchor), 100 nM annealed; ATP concentration: 500 uM
assay-readout: switch fluorescence ratio

INSERT INTO results (construct_sequence, reported) VALUES
  ('TTGTTTGGCA', 0.991),
  ('TCAAGCCCAT', 1),
  ('ATGAGGAATG', 1.01),
  ('AGAGAGCTTT', 1.01),
  ('AGTCTTAAGG', 0.946),
  ('TATTAATGAT', 1.01),
  ('GGATTTATGA', 1),
  ('CTTTTTGGGG', 0.981),
  ('CATATGGGCG', 1.03),
  ('ACGCTCATGT', 1.05),
  ('TATTTTTCTT', 0.975),
  ('GCAGTCATTA', 1.04),
  ('GAAGGCATGG', 1.03);
